- Test system: UACC-257 melanoma
- Protocol Description: NCI-60 one-dose screen, 48 h (100 = growth as untreated, 0 = no growth, -100 = all killed)
- Condition Description: 10 µM
- Experimental: Cells are grown in 96 well plates and exposed to the test compound for 48 hours. Compounds are tested at a single concentration, which is 10^-5 M for most compounds. The reported endpoint is percent growth (GI% or GIPRCNT), where numbers from 0 - 100% represent growth inhibition, and numbers from -100% - 0 represent cell death. For example, a value of 40 represents 60% growth inhibition. A value of 0 means no net growth occurred over the course of the experiment. […]
Compounds without any hit were thinned out: in the full panel of roughly 83,000, 20% have a hit.
Measured Property: growth (%)
Give a bare numeral; the unit % is implied.

Would you please look over these solved cases?
1. Brc1ccc(/C=N/Nc2ncnc3sc4c(c23)CCN(Cc2ccccc2)C4)cc1	56.7
2. CCCSc1nc(NC2CC2)c(C#N)c(-c2ccc(OC)cc2)n1	107
3. COc1ccc(-c2cc(C(=O)N=Nc3c(O)[nH]c4ccccc34)c3ccccc3n2)cc1	47.8
4. Clc1ccc(/C=N/Nc2ncnc3sc4c(c23)CCN(Cc2ccccc2)C4)cc1	-15.5

q: Param item = CN1CCc2c(sc3ncnc(N/N=C/c4cn(-c5ccccc5)nc4-c4ccc(Cl)cc4)c23)C1 ; retrieve measured growth.
a: 8.67

q: Param item = CC1(C)CC[C@]2(C(=O)NCCCNCCCCNCCCN)CC[C@]3(C)C(=CC[C@@H]4[C@@]5(C)Cc6c([nH]c7ccccc67)C(C)(C)[C@@H]5CC[C@]43C)[C@H]2C1 ; retrieve measured growth.
a: 95.9

q: Param item = O=C(NO)c1ccc(CNC(=O)[C@H]2Cc3c([nH]c4ccccc34)[C@H](c3ccccc3)N2)cc1 ; retrieve measured growth.
a: 21.4
